target: UniProtKB Q6DWJ6; assay: GPR139 Agonist titration / agonist counterscreen assay (calcium detection, HEK-GPR139 cells); assay type: cell-based; design: expressed in transfected cells; host or cells: HEK Aequorin cells, Maxcyte transient transfection; details: GPR139 Agonist Activity; ligand efficiency
Sequence (Q6DWJ6 whole entry): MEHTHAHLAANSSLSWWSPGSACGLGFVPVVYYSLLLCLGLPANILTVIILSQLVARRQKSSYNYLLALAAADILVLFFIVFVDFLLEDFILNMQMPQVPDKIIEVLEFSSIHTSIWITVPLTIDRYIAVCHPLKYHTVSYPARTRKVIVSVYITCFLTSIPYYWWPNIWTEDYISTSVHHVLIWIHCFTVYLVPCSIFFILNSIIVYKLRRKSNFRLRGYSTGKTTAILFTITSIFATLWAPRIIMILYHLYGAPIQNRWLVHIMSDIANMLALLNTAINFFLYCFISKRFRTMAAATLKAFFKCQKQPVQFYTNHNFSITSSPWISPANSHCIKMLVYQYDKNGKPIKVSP
Metric Name: Efficiency Ligand

{"Compound": "O=C(CCc1nc2cccnc2n1Cc1cccs1)NCCc1ccccc1", "Efficiency Ligand": 0.41}
{"Compound": "O=C(CN1CCCc2ccccc21)NNC(=O)Nc1ccc(Cl)c(Cl)c1", "Efficiency Ligand": 0.38}
{"Compound": "Cc1ccc(CNC(=O)COC(=O)c2ccc(Br)o2)cc1", "Efficiency Ligand": 0.45}
{"Compound": "O=C(CN1CCCN(Cc2ccc(F)cc2Cl)C1=O)NC1CCCCCC1", "Efficiency Ligand": 0.41}
{"Compound": "CCCn1c(CCC(=O)NCCc2ccc(OCC)cc2)nc2cccnc21", "Efficiency Ligand": 0.38}
{"Compound": "O=C(NC1CC1)C1CC(Cc2cccc3ccccc23)=NO1 (stereo not drawn)", "Efficiency Ligand": 0.46}
{"Compound": "Cc1ccc2c(c1)CCCN2CC(=O)N(C)c1c(N)n(Cc2ccccc2)c(=O)[nH]c1=O", "Efficiency Ligand": 0.30}
{"Compound": "O=C(Cn1cnc2ccccc21)NCCCn1ccc2ccccc21", "Efficiency Ligand": 0.39}
{"Compound": "O=C(Cc1ccccc1)CC1C=CC2=C1c1ccccc1CC2 (stereo not drawn)", "Efficiency Ligand": 0.39}

====

tested on: parental HEK cells; assay: HEK parental Agonist Counterscreen Assay (non-transfected cells); format: cell-based; settings: HEK Agonist Activity section
Metric Name: Lipophilic Efficiency (logD)

{"Molecule": "CCCC1(CCC)NC(=O)N(CC(=O)NCc2ccc(Cl)cc2)C1=O [SR-01000050884]", "Metric Name": "Lipophilic Efficiency (logD)", "Test Result": 1.88}
{"Molecule": "CC1CCCC(NC(=O)CN2CCN(Cc3ccc(F)cc3Cl)C2=O)C1C (stereo not drawn) [SR-01000125648]", "Metric Name": "Lipophilic Efficiency (logD)", "Test Result": 1.67}

I: O=C(C1CC1)N1CCc2cc(S(=O)(=O)NCC3COc4ccccc4O3)ccc21 (stereo not drawn) [SR-01000126429]
II: COc1ccc(CCNC(=O)c2cncc(-c3csc4ccccc34)c2)cc1 [SR-01000654639]
III: O=C(NCCc1ccc(Cl)cc1)c1nnc(Cc2ccc(F)cc2)o1 [SR-01000125346]
Please give the order of these molecules when sorted by Lipophilic Efficiency (logD), largest value leading. // respond by listing labels in the order requested
I, III, II

I: CCOC(=O)c1ccc(CSc2nnc(N)s2)cc1 [SR-01000273754]
II: O=C(CC1Nc2ccccc2NC1=O)NCC1COc2ccccc2O1 (stereo not drawn) [SR-01000146516]
Name the one with the greater Lipophilic Efficiency (logD) value, either I or II as given. Kindly give the label for the entry you pick.
II
(II: 3.75, I: 1.95)

a: CCN1CCCc2cc(CCNC(=O)Nc3ccccc3)ccc21 [SR-01000923250]
b: COc1ccc(CSc2nnc(-c3cccnc3)n2N)cc1 [SR-01000284323]
c: CSc1cccc(NC(=O)C2C3C=CC4(O3)C2C(=O)N(C(C)c2ccccc2)C4C(=O)NC2CCCC(C)C2C)c1 (stereo not drawn) [SR-01000545824]
Rank the items in ascending order with respect to Lipophilic Efficiency (logD). // respond by listing labels in the order requested
c, a, b
(c: −0.052, a: 0.79, b: 3.34)
